- Tested on: Saccharomyces cerevisiae
- METHOD_NOTES: Inhibition of Saccharomyces cerevisiae alpha-glucosidase using PNPG as substrate at 200 uM preincubated for 10 mins followed by substrate addition measured after 10 mins
# inhibition per entry
Please state the figure in %; there is no need to write the unit.

The examples below pair each entry with its known result.
COMPOUND	TESTED_SYSTEM	PROPERTY	NUMERIC_READOUT
CC1(C)CC[C@]2(C(=O)O[C@@H]3O[C@H](CO)[C@@H](O)[C@H](O)[C@H]3O)CC[C@]3(C)C(=CC[C@@H]4[C@@]5(C)C[C@@H](O)[C@H](O)[C@@](C)(COC(=O)[C@@H](CC(=O)O)C[C@H]6c7c(cc(O)c(O)c7O)C(=O)O[C@@H]6C(=O)O)[C@@H]5CC[C@]43C)[C@@H]2[C@@H]1O	Saccharomyces cerevisiae	inhibition	8.2
CC1(C)CC[C@]2(C(=O)O)CC[C@]3(C)C(=CC[C@@H]4[C@@]5(C)C[C@@H](O)[C@H](O)[C@@](C)(CO)[C@@H]5CC[C@]43C)[C@@H]2[C@@H]1O	Saccharomyces cerevisiae	inhibition	4.4

Let us examine a further case.
Q: Return reported inhibition. Input molecule: CC1(C)CC[C@]2(C(=O)O[C@@H]3O[C@H](CO)[C@@H](O)[C@H](O)[C@H]3O)CC[C@]3(C)C(=CC[C@@H]4[C@@]5(C)C[C@@H](O)[C@H](O)C(C)(C)[C@@H]5CC[C@]43C)[C@@H]2[C@@H]1O
A: 36.1

* * *

inhibition: recorded values
- Species on record: Rattus norvegicus
- METHOD_NOTES: Inhibition of rat intestinal alpha-glucosidase using PNPG as substrate at 200 uM after 30 mins
Use % as the unit, but write only the number.

MOLECULE	UNIT	NUMERIC_READOUT
CC1(C)CC[C@]2(C(=O)O[C@@H]3O[C@H](CO)[C@@H](O)[C@H](O)[C@H]3O)CC[C@]3(C)C(=CC[C@@H]4[C@@]5(C)C[C@@H](O)[C@H](O)[C@@](C)(CO)[C@@H]5CC[C@]43C)[C@@H]2C1	%	6.4
CC1(C)CC[C@]2(C(=O)O)CC[C@]3(C)C(=CC[C@@H]4[C@@]5(C)C[C@@H](O)[C@H](O)C(C)(C)[C@@H]5CC[C@]43C)[C@@H]2[C@@H]1O	%	7.8
CC1(C)CC[C@]2(C(=O)O)CC[C@]3(C)C(=CC[C@@H]4[C@@]5(C)C[C@@H](O)[C@H](O)[C@@](C)(COC(=O)[C@H](CC(=O)O)C[C@H]6c7c(cc(O)c(O)c7O)C(=O)O[C@@H]6C(=O)O)[C@@H]5CC[C@]43C)[C@@H]2[C@@H]1O	%	8.5
CC1(C)CC[C@]2(C(=O)O)CC[C@]3(C)C(=CC[C@@H]4[C@@]5(C)C[C@@H](O)[C@H](O)[C@@](C)(CO)[C@@H]5[C@H](O)C[C@]43C)[C@@H]2C1	%	10.1

Now consider the entry below.
Q: Supply recorded inhibition for CC1=C2C3=CC[C@@H]4[C@@]5(C)C[C@@H](O)[C@H](O)[C@@](C)(CO)[C@@H]5CC[C@@]4(C)[C@]3(C)CC[C@@]2(C(=O)O[C@@H]2O[C@H](CO)[C@@H](O)[C@H](O)[C@H]2O)CC[C@H]1C here.
A: 7.3

* * *

- Tested on: Saccharomyces cerevisiae
- METHOD_NOTES: Inhibition of Saccharomyces cerevisiae alpha-glucosidase using PNPG as substrate at 200 uM preincubated for 10 mins followed by substrate addition measured after 10 mins
Each record here notes measured inhibition.
Output spec: scalar in %, unitless text.

Look over these answered cases.
COMPOUND	NUMERIC_READOUT
CC1(C)CC[C@]2(C(=O)O)CC[C@]3(C)C(=CC[C@@H]4[C@@]5(C)C[C@@H](O)[C@H](O)[C@@](C)(COC(=O)[C@H](CC(=O)O)C[C@H]6c7c(cc(O)c(O)c7O)C(=O)O[C@@H]6C(=O)O)[C@@H]5CC[C@]43C)[C@@H]2[C@@H]1O	40.1
CC1(C)CC[C@]2(C(=O)O)CC[C@]3(C)C(=CC[C@@H]4[C@@]5(C)C[C@@H](O)[C@H](O)C(C)(C)[C@@H]5CC[C@]43C)[C@@H]2[C@@H]1O	48.2
CC1(C)CC[C@]2(C(=O)O)CC[C@]3(C)C(=CC[C@@H]4[C@@]5(C)C[C@@H](O)[C@H](O)[C@@](C)(CO)[C@@H]5[C@H](O)C[C@]43C)[C@@H]2C1	21

Q: Please give the documented inhibition of CC1(C)CC[C@]2(C(=O)O)CC[C@]3(C)C(=CC[C@@H]4[C@@]5(C)C[C@@H](O)[C@H](O)[C@@](C)(CO)[C@@H]5CC[C@]43C)[C@@H]2C1
A: 48.8

Q: For C[C@H]1O[C@H](O[C@H]2[C@H](O)[C@@H](O)[C@@H](O[C@H]3[C@H](O)[C@@H](O)C(O)O[C@@H]3CO)O[C@@H]2CO)[C@H](O)[C@@H](O)[C@@H]1N[C@H]1C=C(CO)[C@@H](O)[C@H](O)[C@H]1O (some centres undefined) [ACARBOSE] , write its inhibition.
A: 58.6

Q: Quote inhibition reported for CC1(C)CC[C@]2(C(=O)O[C@@H]3O[C@H](CO)[C@@H](O)[C@H](O)[C@H]3O)CC[C@]3(C)C(=CC[C@@H]4[C@@]5(C)CC[C@H](O)[C@@](C)(CO)[C@@H]5CC[C@]43C)[C@@H]2[C@@H]1O please.
A: 20.7

Q: Supply reported inhibition belonging to this compound: CC1(C)CC[C@]2(C(=O)O[C@@H]3O[C@H](CO)[C@@H](O)[C@H](O)[C@H]3O)CC[C@]3(C)C(=CC[C@@H]4[C@@]5(C)C[C@@H](O)[C@H](O)[C@@](C)(CO)[C@@H]5CC[C@]43C)[C@@H]2C1
A: 4

Q: Report inhibition, nothing else, for this compound: CC1(C)CC[C@]2(C(=O)O[C@@H]3O[C@H](CO)[C@@H](O)[C@H](O)[C@H]3O)CC[C@]3(C)C(=CC[C@@H]4[C@@]5(C)C[C@@H](O)[C@H](O)[C@@](C)(CO)[C@@H]5CC[C@]43C)[C@@H]2[C@@H]1O
A: 3.1

Q: Identify measured inhibition associated with CC1=C2C3=CC[C@@H]4[C@@]5(C)C[C@@H](O)[C@H](O)[C@@](C)(CO)[C@@H]5CC[C@@]4(C)[C@]3(C)CC[C@@]2(C(=O)O[C@@H]2O[C@H](CO)[C@@H](O)[C@H](O)[C@H]2O)CC[C@H]1C
A: 25.1

* * *

- TESTED_SYSTEM: Pancreatic alpha-amylase (Sus scrofa)
- METHOD_NOTES: Inhibition of pig pancreas alpha-amylase using potato starch as substrate at 200 uM after 15 mins
Consider the following compounds and their measured inhibition readings.
Write the answer as a number in %, unit excluded.

COMPOUND	NUMERIC_READOUT
CC1(C)CC[C@]2(C(=O)O[C@@H]3O[C@H](CO)[C@@H](O)[C@H](O)[C@H]3O)CC[C@]3(C)C(=CC[C@@H]4[C@@]5(C)C[C@@H](O)[C@H](O)[C@@](C)(CO)[C@@H]5CC[C@]43C)[C@@H]2C1	5.9
C[C@H]1O[C@H](O[C@H]2[C@H](O)[C@@H](O)[C@@H](O[C@H]3[C@H](O)[C@@H](O)C(O)O[C@@H]3CO)O[C@@H]2CO)[C@H](O)[C@@H](O)[C@@H]1N[C@H]1C=C(CO)[C@@H](O)[C@H](O)[C@H]1O (stereo partly specified) [ACARBOSE]	82.1
CC1(C)CC[C@]2(C(=O)O[C@@H]3O[C@H](CO)[C@@H](O)[C@H](O)[C@H]3O)CC[C@]3(C)C(=CC[C@@H]4[C@@]5(C)C[C@@H](O)[C@H](O)C(C)(C)[C@@H]5CC[C@]43C)[C@@H]2[C@@H]1O	7.2
CC1(C)CC[C@]2(C(=O)O)CC[C@]3(C)C(=CC[C@@H]4[C@@]5(C)C[C@@H](O)[C@H](O)[C@@](C)(CO)[C@@H]5CC[C@]43C)[C@@H]2C1	9.7
CC1(C)CC[C@]2(C(=O)O[C@@H]3O[C@H](CO)[C@@H](O)[C@H](O)[C@H]3O)CC[C@]3(C)C(=CC[C@@H]4[C@@]5(C)C[C@@H](O)[C@H](O)[C@@](C)(COC(=O)[C@@H](CC(=O)O)C[C@H]6c7c(cc(O)c(O)c7O)C(=O)O[C@@H]6C(=O)O)[C@@H]5CC[C@]43C)[C@@H]2[C@@H]1O	4.4

Now consider a different compound.
Q: Please look at this compound and report its inhibition: CC1(C)CC[C@]2(C(=O)O)CC[C@]3(C)C(=CC[C@@H]4[C@@]5(C)C[C@@H](O)[C@H](O)C(C)(C)[C@@H]5CC[C@]43C)[C@@H]2[C@@H]1O
A: 6.2
